Reported herbicidal effect rating, CYPSE values for a set of molecules
system: Cyperus serotinus, Rottb.; assay: Preemergence weed control under flooded paddy conditions, CYPSE (Flatsedge); type: in vivo; details: Rate 0.0620 kg/ha, preemergence, rated 3-4 weeks after treatment; also: meaning of each grade not given here
When you answer, write just the number.

Study these solved cases before continuing.
# molecule, number
measured = [
    ("CON(C)C(=O)/C=C/c1nsc2ccc(-n3c(=O)cc(C(F)(F)F)n(C)c3=O)cc12 [Example 565]", 0.0),
    ("CC(C)S(=O)(=O)NC(=O)COc1ccccc1-c1nsc2ccc(-n3c(=O)cc(C(F)(F)F)n(C)c3=O)cc12 [Example 555]", 6.0),
    ("Cc1ccc(OCC(=O)OCC2(c3ccccc3)CC2)c(-c2nsc3ccc(-n4c(=O)cc(C(F)(F)F)n(C)c4=O)cc23)c1 [Example 517]", 4.5),
    ("Cc1ccc(OCC(=O)NS(=O)(=O)C(C)C)c(-c2nsc3ccc(-n4c(=O)cc(C(F)(F)F)n(C)c4=O)cc23)c1 [Example 560]", 2.0),
    ("C#CC(C)OC(=O)C(C)(C)Oc1ccc(C)cc1-c1nsc2ccc(-n3c(=O)cc(C(F)(F)F)n(C)c3=O)cc12 (stereo not drawn) [Example 531]", 0.0),
]

Could you now consider this next molecule?
Q. Report the value of herbicidal effect rating, CYPSE obtained on Cyperus serotinus, Rottb. for Cn1c(C(F)(F)F)cc(=O)n(-c2ccc3snc(/C=C/C(=O)c4ccccc4)c3c2)c1=O [Example 564] .
A. 0.0

###

system: Oryza sativa, (L.) Tebonnet; assay: Rice tolerance to post-transplant applications under flooded paddy conditions (Example 187), ORYSAT (Rice, Tebonnet); settings: Rate 0.0620 kg/ha, rated three to four weeks after treatment; also: meaning of each grade not given here
outcome-measure: herbicidal effect rating ORYSAT
When you answer, write just the number.

Study these solved cases before continuing.
# compound, outcome-measure, number
records = [
    ("CNC.Cn1c(C(F)(F)F)cc(=O)n(-c2ccc3snc(CSCC(=O)NS(C)(=O)=O)c3c2)c1=O", "herbicidal effect rating ORYSAT", 0.0),
    ("Cn1c(C(F)(F)F)cc(=O)n(-c2ccc3snc(COCc4ccc([N+](=O)[O-])cc4)c3c2)c1=O", "herbicidal effect rating ORYSAT", 0.0),
    ("CCOc1cccc(-c2nsc3ccc(-n4c(=O)cc(C(F)(F)F)n(C)c4=O)cc23)c1", "herbicidal effect rating ORYSAT", 2.5),
    ("Cn1c(C(F)(F)F)cc(=O)n(-c2ccc3snc(CN=C=S)c3c2)c1=O", "herbicidal effect rating ORYSAT", 0.0),
    ("Cn1c(C(F)(F)F)cc(=O)n(-c2ccc3snc(C(=O)NCC(=O)O)c3c2)c1=O", "herbicidal effect rating ORYSAT", 2.0),
]

Q. Report the value of herbicidal effect rating ORYSAT obtained on Oryza sativa, (L.) Tebonnet for CCCS(=O)(=O)NC(=O)C(C)Oc1ccc(C)cc1-c1nsc2ccc(-n3c(=O)cc(C(F)(F)F)n(C)c3=O)cc12 (stereo not shown) .
A. 0.0

Q. Report the value of herbicidal effect rating ORYSAT obtained on Oryza sativa, (L.) Tebonnet for C=CS(=O)(=O)NC(=O)C(C)Oc1ccc(C)cc1-c1nsc2ccc(-n3c(=O)cc(C(F)(F)F)n(C)c3=O)cc12 (stereo not shown) .
A. 1.0

###

test system: Monochoria vaginalis, Presl.; assay: Preemergence weed control under flooded paddy conditions, MOOVA (Monochoria); assay type: in vivo; conditions: Rate 0.0620 kg/ha; preemergence weeds, flooded paddy; rated three to four weeks after treatment; also: meaning of each grade not given here
outcome-measure: herbicidal effect rating, MOOVA
When you answer, write just the number.

Q. Report the value of herbicidal effect rating, MOOVA obtained on Monochoria vaginalis, Presl. for Cn1c(C(F)(F)F)cc(=O)n(-c2ccc3snc(C(=O)NS(=O)(=O)CCl)c3c2)c1=O [Example 324] .
A. 9.0

Q. Report the value of herbicidal effect rating, MOOVA obtained on Monochoria vaginalis, Presl. for CONC(=O)COc1ccc(C)cc1-c1nsc2ccc(-n3c(=O)cc(C(F)(F)F)n(C)c3=O)cc12 [Example 316] .
A. 9.0

Q. Report the value of herbicidal effect rating, MOOVA obtained on Monochoria vaginalis, Presl. for COc1cccc(-c2nsc3ccc(-n4c(=O)cc(C(F)(F)F)n(C)c4=O)cc23)c1 [Example 301] .
A. 9.0

Q. Report the value of herbicidal effect rating, MOOVA obtained on Monochoria vaginalis, Presl. for COC(=O)c1nsc2ccc(-n3c(=O)cc(C(F)(F)F)n(C)c3=O)cc12 [Example 318] .
A. 6.0
